Target: T1, 2b (Tomato aspermy virus (TAV), UniProt Q8UYT3 1-95)
T1 sequence: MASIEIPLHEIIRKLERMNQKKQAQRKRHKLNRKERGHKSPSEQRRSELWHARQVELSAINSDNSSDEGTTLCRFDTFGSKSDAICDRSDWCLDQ
Test: competition EMSA; KC vs labeled gf698 siRNA, 1.9 nM 2b monomer
Conditions: protein: recombinant; tags: His-SUMO removed by SUMO protease; chain copies: 2; 2 nt 3' overhangs
PARAMETER_MEASURED: Ki (pM)
One number for each entry, in pM.

Query (binder): gf698 siRNA (dsRNA, 5' phosphate on both strands) RNA 1: UAGUUCAUCCAUGCCAUGUGU RNA 2: ACAUGGCAUGGAUGAACUAUA ; field requested: Ki 530

Reference source: paper PMC5915741
